Target: TNFα trimer (Homo sapiens, UniProt P01375)
Sequence (P01375 77-233 limits assumed): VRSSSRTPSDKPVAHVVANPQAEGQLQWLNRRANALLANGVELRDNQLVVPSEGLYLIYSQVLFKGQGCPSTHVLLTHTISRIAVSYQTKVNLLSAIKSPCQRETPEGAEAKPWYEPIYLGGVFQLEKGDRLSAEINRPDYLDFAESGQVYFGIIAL
Test: TNFα FP Competitive Binding Assay
Conditions: FP binding assay; 20 nM TNFα trimer, 1 nM OregonGreen488 probe; read-out: TNF IC50
Known IC50 of a selection of compounds

COMPOUND | IC50
Cc1ccc(OC(F)F)c(Cn2c3cc(-c4cnc(C(C)C)nc4)ccc3c(=O)n2C)c1 [Example 124] | < 1 µM
Cn1c(=O)c2ccc(-c3cnc(N4CCN5C(=O)NC[C@H]5C4)nc3)cc2n1Cc1cc(Cl)ccc1C(F)(F)F [Example 29.5] | < 1 µM
CCN(Cc1ccc(OC(F)F)c(Cn2c3cc(-c4cnc(N5CCN(C(C)=O)[C@H](C)C5)nc4)ccc3c(=O)n2C)c1)C(C)=O [Example 94] | 1 to 10 µM
Cn1c(=O)c2ccc(-c3cnc(N4CCN(C=O)CC4)nc3)cc2n1Cc1cc(CO)ccc1OC(F)F [Example 29] | < 1 µM
COc1c(-c2cnc(N3CCN(C(=O)CO)[C@H](C)C3)nc2)ccc2c(=O)n(C)n(Cc3ccccc3Cl)c12 [Example 24.9] | < 1 µM
Cn1c(=O)c2ccc(-c3cnc(N4CCOCC4)nc3)cc2n1Cc1cccc(OC(F)F)c1 [Example 1.2] | 1 to 10 µM
COC[C@H]1CCCN1c1ncc(-c2ccc3c(=O)n(C)n(Cc4ccccc4OC(F)F)c3c2)cn1 [Example 2.2] | < 1 µM
Cc1ccc(OC(F)F)c(Cn2c3cc(-c4cnc(N5CCN(C(=O)CO)C[C@@H]5C)nc4)ccc3c(=O)n2C)c1 [Example 22.15] | < 1 µM
Cc1ccc(OC(F)F)c(Cn2c3cc(-c4cnc(N5CCN[C@H](C)C5)nc4)ccc3c(=O)n2C)c1 [Example 14.5] | 1 to 10 µM
CC(=O)N1CCN(c2ncc(-c3ccc4c(=O)n(C)n(Cc5ccccc5OC(F)F)c4c3)cn2)[C@H](C)C1 [Example 10.16] | < 1 µM
Cc1cccc([C@@H](C)n2c3cc(-c4cnc(N5CCN(C(=O)CO)[C@H](C)C5)nc4)ccc3c(=O)n2C)c1 (single isomer, unassigned) [Example 118] | 1 to 10 µM
CN1CC[C@@H](Nc2ncc(-c3ccc4c(=O)n(C)n(Cc5cc(CO)ccc5OC(F)F)c4c3)cn2)CC1=O (single isomer, unassigned) [Example 28] | < 1 µM
COCc1ccc(OC(F)F)c(Cn2c3cc(-c4cnc(N5CCN(C(C)=O)CC5)nc4)ccc3c(=O)n2C)c1 [Example 90] | 1 to 10 µM
Cn1c(=O)c2ccc(-c3cnc(C(C)(C)O)nc3)cc2n1Cc1cn(Cc2cccnc2)cc1C(F)(F)F [Example #127] | < 1 µM
CC(=O)N1CCN(c2ncc(-c3ccc4c(=O)n(C)n(Cc5cc(COc6ccn[nH]6)ccc5OC(F)F)c4c3)cn2)C[C@H]1C [Example 102] | < 1 µM
Cn1c(=O)c2ccc(-c3cnc(N4CCN5C(=O)NC[C@@H]5C4)nc3)cc2n1Cc1cc(CO)ccc1OC(F)F [Example 16.1] | < 1 µM
Cn1cc(Cn2c3cc(-c4cnc(N5CCN6C(=O)NC[C@H]6C5)nc4)ccc3c(=O)n2C)c(C(F)(F)F)c1 [Example 123] | < 1 µM
Cn1c(=O)c2ccc(-c3cnc(N4CC[C@@H](O)C4)nc3)cc2n1Cc1ccccc1OC(F)F [Example 2.5] | > 10 µM
Cc1ccc(Cl)c(Cn2c3nc(-c4cnc(C(C)(C)O)nc4C)ccc3c(=O)n2C)c1 [Example 99] | < 1 µM
Cc1ccc(OC(F)F)c(Cn2c3cc(-c4cnc(N5CCC[C@H]5CO)nc4)ccc3c(=O)n2C)c1 [Example 22.7] | 1 to 10 µM
COc1ncc(-c2ccc3c(=O)n(C)n(Cc4ccccc4OC(F)F)c3c2)cn1 [Example 5.4] | 1 to 10 µM

###

Biological target: TNFα trimer (Homo sapiens, UniProt P01375)
Experiment: TNFα FP Competitive Binding Assay
Conditions: FP binding assay; 20 nM TNFα trimer, 1 nM OregonGreen488 probe; read-out: TNF IC50
pIC50: −log10 of the molar value.
Here the recorded pIC50 is given for each entry.

MOLECULE | pIC50
Cc1ccc(OC(F)F)c(Cn2c3nc(-c4cnc(C(C)(C)O)nc4C)c(F)cc3c(=O)n2C)c1 [Example 98] | > 6.00
COC(=O)NCc1ccc(OC(F)F)c(Cn2c3cc(-c4cnc(N5CCN(C(C)=O)[C@H](C)C5)nc4)ccc3c(=O)n2C)c1 [Example 27.2] | > 6.00
Cc1ccc(OC(F)F)c(Cn2c3cc(-c4cnn5c(C(C)(C)O)cnc5c4)ccc3c(=O)n2C)c1 [Example #135] | > 6.00
Cn1c(=O)c2ccc(-c3cnc(N4CCOCC4)nc3)cc2n1Cc1cc(CO)ccc1OC(F)F [Example 9] | > 6.00
Cn1c(=O)c2ccc(-c3cnc(C(C)(C)O)nc3)cc2n1Cc1cc(NCc2cc[nH]n2)ccc1Cl [Example 43] | 5.00 to 6.00
Cn1c(=O)c2ccc(-c3cnc(C4(O)CCN(C=O)CC4)nc3)cc2n1Cc1ccccc1OC(F)F [Example 20] | 5.00 to 6.00
Cn1c(=O)c2ccc(-c3cnc(N4CCN5C(=O)NC[C@@H]5C4)nc3)cc2n1Cc1nc(CO)ccc1C(F)(F)F [Example 16.10] | > 6.00
Cn1c(=O)c2ccc(-c3cnc(N4CCN5C(=O)NC[C@H]5C4)nc3)cc2n1Cc1cccnc1C(F)(F)F [Example 29.2] | 5.00 to 6.00
Cc1ccc(C#N)c(Cn2c3cc(-c4cnc(N5CCN6C(=O)NC[C@H]6C5)nc4)ccc3c(=O)n2C)c1 [Example 37] | 5.00 to 6.00
Cn1c(=O)c2ccc(-c3cnc(N4CCN5C(=O)OC[C@H]5C4)nc3)cc2n1Cc1cc(CC#N)ccc1OC(F)F [Example 79] | > 6.00
CC(=O)N1CCC(O)(c2ncc(-c3ccc4c(=O)n(C)n(Cc5ccccc5OC(F)F)c4c3)cn2)CC1 [Example 32] | 5.00 to 6.00
CC(=O)N1CCN(c2ncc(-c3ccc4c(=O)n(C)n(Cc5nc(C)ccc5OC(F)F)c4c3)cn2)C[C@H]1C [Example 75] | > 6.00
Cc1ccc(C(F)(F)F)c(Cn2c3cc(-c4cnc(N5CCN(C(=O)CO)[C@H](C)C5)nc4)ccc3c(=O)n2C)n1 [Example 19.3] | > 6.00
Cn1c(=O)c2ccc(-c3cnc(C(C)(C)O)nc3)cc2n1Cc1cc([C@H]2CC[C@@H](C#N)C2)ccc1OC(F)F (racemic) [Example 96] | 5.00 to 6.00

###

Target: TNFα trimer (Homo sapiens)
Test: TNFα FP Competitive Binding Assay
Conditions: FP binding assay; 20 nM TNFα trimer, 1 nM OregonGreen488 probe; read-out: TNF IC50
pIC50: −log10 of the molar value.

COMPOUND | pIC50
COc1cc2c(=O)n(C)n(Cc3ccccc3OC(F)F)c2cc1-c1cnc(N2CCN(C(=O)CO)[C@H](C)C2)nc1 | 5.00 to 6.00
CC(=O)N1CC[C@H](Nc2ncc(-c3ccc4c(=O)n(C)n(Cc5ccccc5OC(F)F)c4c3)cn2)C1 | 5.00 to 6.00
Cc1ccc(OC(F)F)c(Cn2c3cc(-c4cnc(N5CCN(C(=O)CO)[C@H](C)C5)nc4)ccc3c(=O)n2C)n1 | > 6.00
Cn1c(=O)c2ccc(-c3cnc(N4CCOCC4)nc3)cc2n1Cc1ccccc1OC(F)F | > 6.00
C[C@@H]1CN(c2ncc(-c3cc4c(cc3F)c(=O)n(C)n4Cc3ccccc3OC(F)F)cn2)CCN1C(=O)CO | > 6.00
Cn1c(=O)c2ccc(-c3cnc(NCCO)nc3)cc2n1Cc1ccccc1OC(F)F | 5.00 to 6.00
C[C@H](N)C(=O)OCc1ccc(OC(F)F)c(Cn2c3cc(-c4cnc(N5CCN6C(=O)NC[C@@H]6C5)nc4)ccc3c(=O)n2C)c1 | > 6.00
Cn1c(=O)c2cc(F)c(-c3cnc(C(C)(C)O)nc3)cc2n1Cc1cc(Cn2cnnc2)ccc1OC(F)F | 5.00 to 6.00
Cc1cccc(C(C)n2c3cc(-c4cnc(N5CCN(C(=O)CO)[C@H](C)C5)nc4)ccc3c(=O)n2C)n1 (stereo partly shown) | 5.00 to 6.00
CN1CC(CNc2ncc(-c3ccc4c(=O)n(C)n(Cc5ccccc5OC(F)F)c4c3)cn2)CC1=O (stereo not shown) | 5.00 to 6.00
Cn1c(=O)c2ccc(-c3cnc(CN4CC(C(=O)O)C4)nc3)cc2n1Cc1ccccc1OC(F)F | < 5.00
Cn1c(=O)c2ccc(-c3cnc(N4CCOCC4)nc3)cc2n1Cc1ccccc1F | 5.00 to 6.00
C[C@@H]1CN(c2ncc(-c3ccc4c(=O)n(C)n(Cc5ccccc5Cl)c4c3)cn2)CCN1C(=O)CO | > 6.00
Cn1c(=O)c2ccc(-c3cnc(N4CCOCC4)nc3)cc2n1CCc1ccccc1F | < 5.00
Cc1cc2c(=O)n(C)n(Cc3ccccc3OC(F)F)c2cc1-c1cnc(N2CCOCC2)nc1 | > 6.00
Cn1c(=O)c2ccc(-c3cnc(NC4CCNC4=O)nc3)cc2n1Cc1cc(CO)ccc1OC(F)F (stereo not shown) | 5.00 to 6.00
